- assay_system: Melanin-concentrating hormone receptor 1 (Homo sapiens)
- Sequence (Q99705 whole entry): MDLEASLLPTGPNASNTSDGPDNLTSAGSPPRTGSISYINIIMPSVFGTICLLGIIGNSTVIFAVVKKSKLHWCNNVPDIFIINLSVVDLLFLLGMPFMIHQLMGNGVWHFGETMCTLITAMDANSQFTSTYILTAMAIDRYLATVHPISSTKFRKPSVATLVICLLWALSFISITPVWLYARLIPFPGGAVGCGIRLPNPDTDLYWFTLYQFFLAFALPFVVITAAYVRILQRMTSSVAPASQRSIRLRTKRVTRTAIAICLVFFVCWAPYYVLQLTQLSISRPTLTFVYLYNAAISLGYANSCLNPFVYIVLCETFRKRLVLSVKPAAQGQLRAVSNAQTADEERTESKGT
pKi: −log10 of the molar value.
Label True when pKi is at or above 8; otherwise label False.

test_smiles	assay_system	class
CCS(=O)(=O)N1CCC(N(C(=O)Nc2ccc(F)c(C(F)(F)F)c2)c2ccc(-c3cccc(C#N)c3)cc2)CC1	Melanin-concentrating hormone receptor 1 (Homo sapiens)	False
CN(C)CCN(C(=O)Nc1cc(Cl)cc(Cl)c1)c1ccc(-c2cccc(C#N)c2)cc1	Melanin-concentrating hormone receptor 1 (Homo sapiens)	False
N#Cc1cccc(-c2ccc(N(CCN3CC[C@@H](O)C3)C(=O)Nc3ccc(F)c(C(F)(F)F)c3)cc2)c1	Melanin-concentrating hormone receptor 1 (Homo sapiens)	True
CN(C)CCN(C(=O)Nc1ccc(F)c(Cl)c1)c1ccc(-c2cccc(C#N)c2)cc1	Melanin-concentrating hormone receptor 1 (Homo sapiens)	True
CC(C)C(=O)N1CCC(N(C(=O)Nc2ccc(F)c(C(F)(F)F)c2)c2ccc(-c3cccc(C#N)c3)cc2)CC1	Melanin-concentrating hormone receptor 1 (Homo sapiens)	False

====

AUC(0-t) at 6 h values for the compounds below.
- assay_remarks: Area under curve(0-6 h) for the compound administered orally at 10 mg/kg in rat
- Type: ADME, organism-based
- Parameters: time < 6 hr, dose 10 mg/kg, route oral
- test_context: in vivo, po
readout_name: AUC(0-t) at 6 h (ng·h/mL)

test_smiles	readout_name	reported_measurement
CN1CCN(CCN(C(=O)Nc2ccc(C(F)(F)F)c(F)c2)c2ccc(-c3cccc(C#N)c3)cc2)CC1	AUC(0-t) at 6 h	542
N#Cc1cccc(-c2ccc(N(CCN3CC[C@@H](O)C3)C(=O)Nc3cc(Cl)cc(Cl)c3)cc2)c1	AUC(0-t) at 6 h	1850
N#Cc1cccc(-c2ccc(N(CCN3CC[C@@H](O)C3)C(=O)Nc3ccc(F)c(Cl)c3)cc2)c1	AUC(0-t) at 6 h	1080
CN(C)CCN(C(=O)Nc1ccc(C(F)(F)F)c(F)c1)c1ccc(-c2cccc(C#N)c2)cc1	AUC(0-t) at 6 h	4800
N#Cc1cccc(-c2ccc(N(CCN3CCCC3)C(=O)Nc3ccc(C(F)(F)F)c(F)c3)cc2)c1	AUC(0-t) at 6 h	967
CN(C)CCN(C(=O)Nc1ccc(F)c(Cl)c1)c1ccc(-c2cccc(C#N)c2)cc1	AUC(0-t) at 6 h	1950
N#Cc1cccc(-c2ccc(N(CCN3CC[C@@H](O)C3)C(=O)Nc3ccc(C(F)(F)F)c(F)c3)cc2)c1	AUC(0-t) at 6 h	5470
N#Cc1cccc(-c2ccc(N(CCN3CC[C@H](O)C3)C(=O)Nc3ccc(C(F)(F)F)c(F)c3)cc2)c1	AUC(0-t) at 6 h	1450
N#Cc1cccc(-c2ccc(N(CCN3CC[C@@H](O)C3)C(=O)Nc3ccc(F)c(C(F)(F)F)c3)cc2)c1	AUC(0-t) at 6 h	2790

====

Recorded below: Ki, system Melanin-concentrating hormone receptor 1 (Homo sapiens, UniProt Q99705).

test_smiles	Ki (nM)
N#Cc1cccc(-c2ccc(N(CCN3CC[C@@H](O)C3)C(=O)Nc3ccc(C(F)(F)F)c(F)c3)cc2)c1	8.9
N#Cc1cccc(-c2ccc(N(CCN3CC[C@H](O)C3)C(=O)Nc3ccc(C(F)(F)F)c(F)c3)cc2)c1	7.3
N#Cc1cccc(-c2ccc(N(CCN3CC[C@@H](O)C3)C(=O)Nc3ccc(F)c(Cl)c3)cc2)c1	7.1
N#Cc1cccc(-c2ccc(N(CCN3CC[C@@H](O)C3)C(=O)Nc3cc(Cl)cc(Cl)c3)cc2)c1	11
CNCCN(C(=O)Nc1ccc(F)c(Cl)c1)c1ccc(-c2cccc(C#N)c2)cc1	6
CN(C)CCN(C(=O)Nc1ccc(C(F)(F)F)c(F)c1)c1ccc(-c2cccc(C#N)c2)cc1	6
CN1CCN(CCN(C(=O)Nc2ccc(C(F)(F)F)c(F)c2)c2ccc(-c3cccc(C#N)c3)cc2)CC1	8.2
